# credit: paper PMC4336329

molecular target: human ether-à-go-go-related gene (hERG) potassium channel (human); assay: primary screen, population patch clamp on CHO cells stably expressing hERG; higher = less effect of the substance;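 further: peak tail current of the secondary pulse compared with the same well before compound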
Sequence (Q12809 whole entry, looked up): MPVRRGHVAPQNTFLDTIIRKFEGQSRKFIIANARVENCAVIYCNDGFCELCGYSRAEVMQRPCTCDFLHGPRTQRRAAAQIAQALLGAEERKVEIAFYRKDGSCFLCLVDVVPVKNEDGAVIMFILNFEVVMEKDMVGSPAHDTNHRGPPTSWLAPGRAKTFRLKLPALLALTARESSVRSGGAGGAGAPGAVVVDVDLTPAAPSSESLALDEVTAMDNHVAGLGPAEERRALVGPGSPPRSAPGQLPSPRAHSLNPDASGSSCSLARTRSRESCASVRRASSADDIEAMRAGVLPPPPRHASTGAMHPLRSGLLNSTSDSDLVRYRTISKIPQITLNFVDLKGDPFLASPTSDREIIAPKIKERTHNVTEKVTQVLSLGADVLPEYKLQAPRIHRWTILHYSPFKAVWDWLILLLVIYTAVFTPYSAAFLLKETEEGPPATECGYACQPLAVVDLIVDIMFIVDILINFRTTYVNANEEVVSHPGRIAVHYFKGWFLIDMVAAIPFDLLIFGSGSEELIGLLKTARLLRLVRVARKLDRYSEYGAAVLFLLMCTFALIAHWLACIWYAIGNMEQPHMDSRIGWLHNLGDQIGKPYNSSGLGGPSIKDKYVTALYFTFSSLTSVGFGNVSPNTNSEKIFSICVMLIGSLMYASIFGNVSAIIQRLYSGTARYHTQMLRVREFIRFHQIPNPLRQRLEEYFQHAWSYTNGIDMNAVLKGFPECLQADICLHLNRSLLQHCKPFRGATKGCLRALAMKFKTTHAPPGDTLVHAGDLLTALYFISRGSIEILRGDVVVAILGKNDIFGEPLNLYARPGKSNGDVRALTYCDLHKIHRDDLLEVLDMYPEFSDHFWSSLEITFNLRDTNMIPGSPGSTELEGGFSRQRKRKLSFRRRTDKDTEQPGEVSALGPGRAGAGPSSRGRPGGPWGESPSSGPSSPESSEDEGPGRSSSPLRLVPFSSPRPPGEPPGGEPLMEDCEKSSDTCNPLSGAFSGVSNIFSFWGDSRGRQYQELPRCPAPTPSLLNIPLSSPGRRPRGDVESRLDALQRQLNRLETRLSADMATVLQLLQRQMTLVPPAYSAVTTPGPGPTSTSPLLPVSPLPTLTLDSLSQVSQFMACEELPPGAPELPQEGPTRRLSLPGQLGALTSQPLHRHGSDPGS
Screen size: about 310,000 compounds; about 14,000 (4.5%) showed an effect of 50% or more. Effects have a minus sign here. This is one part of a sample in which strong results are shown more often than they occur.
Reported Endpoint: hERG current change (%, negative = inhibition) at 10uM (%)
Expressed in %, but write only the number.

Consider the reported hERG current change (%, negative = inhibition) at 10uM for these compounds:
| Compound | Recorded Number |
| --- | --- |
| COc1ccc(N2CC(C(=O)N3CCC4(CC3)CC(=O)c3ccccc3O4)CC2=O)cc1 (stereo not shown) | -78.1 |
| Cc1nc(N)nc(N/N=C/c2c(F)cccc2Cl)n1 | 3.11 |
| COc1cccc2c(=O)cc(C)n(CC(=O)Nc3ccc(C)c(C)c3)c12 | -5.88 |
| CCN(CC(=O)NCc1ccc(Cl)cc1)C(=O)CCC(=O)c1ccc(F)cc1 | -61.9 |
| CCOc1ccc(C(=O)CCC(=O)N(CC)CC(=O)Nc2c(F)cccc2F)cc1 | -25.6 |

Query (compound): NC(=O)c1ccccc1-c1nc(-c2ccccc2)no1 ; field requested: hERG current change (%, negative = inhibition) at 10uM -76.5

Query COc1cccc(N2CC(C(=O)N3CCC4(CC3)CC(=O)c3ccccc3O4)CC2=O)c1 (stereo not shown) next -53.5

Same question for COc1ccc(CNCCC(c2ccc(F)cc2)c2ccc(OC(C)C)cc2)cc1OC (stereo not shown) please. -73

Quick one: Cc1ccc(C(=O)CCC(=O)NCc2ccc(Cl)cc2)cc1 -8.52

Here is the next compound: O=C(NC1CCN(C(=S)NCc2ccco2)CC1)NC12CC3CC(CC(C3)C1)C2 5.73

Thanks! And CN1CCN(C(=O)c2ccccc2-c2nc(-c3ccc(Cl)cc3)no2)CC1 ? -65.6

Same read-out for COc1ccc(CNCCC(c2ccc(OC(C)C)cc2)c2ccccc2OC)cc1OC (stereo not shown) ? -71.3

Thanks! And COc1ccc(OC)c(NC(=S)NCCC(c2ccccc2)c2ccccc2)c1 ? 1.73

Entry to check: COc1ccc(CC(=O)NC(C)CCc2ccccc2)cc1OC (stereo not shown) 8.96

Continue with CCN(CC(=O)NCc1cccs1)C(=O)CCC(=O)c1ccc(C)cc1 -46.9

Would you kindly repeat that for COc1ccc(CNCCCSc2ncccn2)cc1OC.Cl ? 11.9
